Assayed system: T1, His6-CRBN/DDB1 complex (UniProt Q96SW2 1-442; Q16531 1-1140)
T1 construct: cereblon (CRBN), E3 ligase substrate adapter; DDB1, in complex with CRBN; Used as a preformed complex in TR-FRET and AlphaScreen; also called cereblon; source: recombinant
Experimental details: AlphaScreen or HTRF; competitive TR-FRET ligand displacement assay against recombinant His6-CRBN/DDB1; KD from dose-titration of the ligand
Test settings: both partners purified
Non-standard residues stand in square brackets, D forms with d. No end group written: not given here. *: point of attachment. cQ = C-terminal cyclic glutamine (glutarimide), (S)-epimer, O=C1CC[C@H](N*)C(=O)N1; Fmoc = O=C(OCC1c2ccccc2-c2ccccc21)*
Result type: pKd
Conceptually, pKd converts a concentration in mol/L into minus its log10.

*Q* Tell me pKd reported for Fmoc-GGGF[cQ] (pentapeptide bearing the (S)-epimer of cyclic glutamine at the C-terminus; also called FcQ pentapeptide; source: synthetic peptide) [Fmoc-GGGFcQ]
*A* 7.05
